# measured_target: Histamine H2 receptor (Homo sapiens, UniProt P25021); note: assay procedure not described here
# Sequence (P25021 whole entry): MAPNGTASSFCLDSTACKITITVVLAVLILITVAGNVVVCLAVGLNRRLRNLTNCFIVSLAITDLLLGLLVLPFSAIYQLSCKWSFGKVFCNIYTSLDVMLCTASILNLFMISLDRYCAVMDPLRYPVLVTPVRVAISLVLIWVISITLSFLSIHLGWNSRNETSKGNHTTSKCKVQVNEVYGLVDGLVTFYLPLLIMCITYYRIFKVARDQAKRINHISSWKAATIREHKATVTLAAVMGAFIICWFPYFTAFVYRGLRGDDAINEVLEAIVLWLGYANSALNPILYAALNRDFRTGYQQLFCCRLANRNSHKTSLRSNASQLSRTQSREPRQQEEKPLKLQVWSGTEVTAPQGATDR
# Assay type: functional, cell-based

{"molecule": "CCC(C)C1(CC)C(=O)NC(=O)NC1=O (configuration not stated) [BUTABARBITAL]", "measured_target": "Histamine H2 receptor (Homo sapiens, UniProt P25021)", "AC50": "> 30 µM"}
{"molecule": "CCOC(=O)c1cncn1[C@H](C)c1ccccc1 [ETOMIDATE]", "measured_target": "Histamine H2 receptor (Homo sapiens, UniProt P25021)", "AC50": "> 10 µM"}
{"molecule": "O=C(O)c1ccccc1Nc1cc(Cl)ccc1C(=O)O [LOBENZARIT]", "measured_target": "Histamine H2 receptor (Homo sapiens, UniProt P25021)", "AC50": "> 30 µM"}
{"molecule": "CCCN[C@H]1CCc2nc(N)sc2C1 [PRAMIPEXOLE]", "measured_target": "Histamine H2 receptor (Homo sapiens, UniProt P25021)", "AC50": "0.73 µM"}
{"molecule": "CC(=O)SC[C@@H](C)C(=O)N1CCC[C@H]1C(=O)N[C@@H](Cc1ccccc1)C(=O)O", "measured_target": "Histamine H2 receptor (Homo sapiens, UniProt P25021)", "AC50": "> 30 µM"}
{"molecule": "CCCCCC(=O)O[C@]1(C(C)=O)CC[C@H]2[C@@H]3CCC4=CC(=O)CC[C@]4(C)[C@H]3CC[C@@]21C [HYDROXYPROGESTERONE CAPROATE]", "measured_target": "Histamine H2 receptor (Homo sapiens, UniProt P25021)", "AC50": "> 30 µM"}
{"molecule": "C/C(=C\\C(=O)OCCCCCCCCC(=O)O)C[C@@H]1OC[C@H](C[C@@H]2O[C@H]2[C@@H](C)[C@H](C)O)[C@@H](O)[C@H]1O [MUPIROCIN]", "measured_target": "Histamine H2 receptor (Homo sapiens, UniProt P25021)", "AC50": "> 10 µM"}
{"molecule": "CCOC(=O)C1=C(C)NC(C)=C(C(=O)OC)C1c1cccc([N+](=O)[O-])c1 (configuration not stated) [NITRENDIPINE]", "measured_target": "Histamine H2 receptor (Homo sapiens, UniProt P25021)", "AC50": "> 10 µM"}
{"molecule": "CCOC(=O)O[C@]1(C(=O)OCCl)CC[C@H]2[C@@H]3CCC4=CC(=O)C=C[C@]4(C)[C@H]3[C@@H](O)C[C@@]21C [LOTEPREDNOL ETABONATE]", "measured_target": "Histamine H2 receptor (Homo sapiens, UniProt P25021)", "AC50": "> 30 µM"}
{"molecule": "CCC1(c2ccccc2)CCC(=O)NC1=O (configuration not stated) [GLUTETHIMIDE]", "measured_target": "Histamine H2 receptor (Homo sapiens, UniProt P25021)", "AC50": "> 10 µM"}
{"molecule": "C[N@+]1(CCF)[C@@H]2CC[C@H]1C[C@@H](OC(=O)C(O)(c1ccccc1)c1ccccc1)C2", "measured_target": "Histamine H2 receptor (Homo sapiens, UniProt P25021)", "AC50": "> 30 µM"}
{"molecule": "COc1ccc2nc3cc(Cl)ccc3c(Nc3cc(CN4CCCC4)c(O)c(CN4CCCC4)c3)c2n1 [PYRONARIDINE]", "measured_target": "Histamine H2 receptor (Homo sapiens, UniProt P25021)", "AC50": "> 30 µM"}
